Target: Gamma-secretase
Test: Inhibition of human gamma secretase assessed as reduction in Abeta42 production
Type: protein-complex assay
assay endpoint: pIC50
Scale: pIC50 equals -log10([C]), with [C] in mol/L.

Note down pIC50 recorded for `COc1cc(N2C[C@H]3CC[C@@H](C2)[C@@H]3Nc2nc3n(n2)CCC[C@H]3Oc2cc(F)cc(Cl)c2)cnn1` 8.20

Note down pIC50 recorded for `Cc1cc(N2C[C@H]3CC[C@@H](C2)[C@@H]3Nc2nc3n(n2)CCC[C@H]3Oc2cc(F)cc(Cl)c2)ncn1` 8.09

Note down pIC50 recorded for `Cc1cc(N2C[C@H]3CC[C@@H](C2)[C@@H]3Nc2nc3n(n2)CCC[C@H]3Oc2ccc(Cl)cc2)ncn1` 7.99

Note down pIC50 recorded for `Cc1cc(N2C[C@H]3CC[C@@H](C2)[C@@H]3Nc2nc3n(n2)CCC[C@H]3Oc2cccc(Cl)c2)ncn1` 8.00

Note down pIC50 recorded for `Cc1cc(N2C[C@H]3CC[C@@H](C2)[C@@H]3Nc2nc3n(n2)CCC[C@H]3Oc2cc(Cl)cc(Cl)c2)ncn1` 8.18

Note down pIC50 recorded for `COc1cc(N2C[C@H]3CC[C@@H](C2)[C@@H]3Nc2nc3n(n2)CC[C@H]3Oc2cc(F)cc(Cl)c2)cnn1` 8.09

All values here come from ChEMBL document CHEMBL4725457.
